Catalogue of EC50 readings, one per entry.
# assay notes: Inhibition of HIV1 reverse transcriptase K103N mutant infected in human MT4 cells assessed as protection against virus-induced cytotoxicity by MTT assay
outcome measure: EC50 (nM)

>>> df
                                   compound  recorded_result
0  Cc1cc(C#N)cc(C)c1Oc1nc(NC2CCN(Cc3cc(=O)[nH]c(=O)[nH]3)CC2)nc2ccsc12              6.1
1  Cc1cc(C#N)cc(C)c1Oc1nc(NC2CCN(Cc3cn(S(C)(=O)=O)cn3)CC2)nc2ccsc12              4.5
2  Cc1cc(C#N)cc(C)c1Oc1nc(NC2CCN(Cc3c[nH]cn3)CC2)nc2ccsc12                6
3  Cc1cc(C#N)cc(C)c1Oc1nc(NC2CCN(Cc3ccc(S(N)(=O)=O)cc3)CC2)nc2cc[nH]c12                1
